# System: HEp-2
# test description: Cytotoxicity in human Hep2 cells assessed as reduction in cell viability measured after 3 days by beckman coulter counting method
# Assay type: functional
# measurement conditions: HEp-2, 72 h, time 3 day
We begin with a simple list: items and their reported CC50.

>  <smiles data>
COc1ccc(C(OCCOCn2cc3c(nc2=O)Nc2ccccc2O3)(c2ccccc2)c2ccc(OC)cc2)cc1

>  <CC50>
> 100 µM

$$$$

Reported CC50 for HEp-2, given `CCCCCCCCOc1ccc2c(c1)Nc1nc(=O)n([C@H]3C[C@H](O)[C@@H](CO)O3)cc1O2` ?
> 100 µM

Reported CC50 for HEp-2, given `O=c1nc2c(cn1[C@H]1C=C[C@@H](O)C1)Oc1ccccc1N2` ?
80 µM

Reported CC50 for HEp-2, given `O=c1nc2c(cn1COCCO)Oc1ccccc1N2` ?
> 100 µM

====

# test description: Selectivity index, ratio of CC50 for pig PEK cells to EC50 for Antiviral activity against Tick-borne virus encephalitis infected in pig PEK cells
# Type: toxicity, cell-based
# measurement conditions: read-out: Ratio CC50/EC50
attribute measured: selectivity ratio

>  <smiles data>
COc1ccc(C(OCCOCn2cc3c(nc2=O)N(C)c2ccccc2O3)(c2ccccc2)c2ccc(OC)cc2)cc1

>  <result>
> 6

$$$$
>  <smiles data>
CCCCCCCCOc1ccc2c(c1)N(C)c1nc(=O)n([C@H]3C[C@H](O)[C@@H](CO)O3)cc1O2

>  <result>
> 4

$$$$
>  <smiles data>
CCCCCCCCCOc1ccc2c(c1)N(C)c1nc(=O)n([C@H]3C[C@H](O)[C@@H](CO)O3)cc1O2

>  <result>
> 40

$$$$
>  <smiles data>
COc1ccc(C(OCCOCn2cc3c(nc2=O)Nc2ccccc2O3)(c2ccccc2)c2ccc(OC)cc2)cc1

>  <result>
> 2

$$$$
>  <smiles data>
O=c1nc2c(cn1COCCO)Oc1ccccc1N2

>  <result>
> 4

$$$$
>  <smiles data>
CCCCCCCCOc1ccc2c(c1)Nc1nc(=O)n([C@H]3C[C@H](O)[C@@H](CO)O3)cc1O2

>  <result>
> 35

$$$$
>  <smiles data>
CN1c2ccccc2Oc2cn(COCCO)c(=O)nc21

>  <result>
> 6

$$$$

Let us examine a further case.
What selectivity ratio value was documented for this compound, `CCCCCCCCCOc1ccc2c(c1)Nc1nc(=O)n([C@H]3C[C@H](O)[C@@H](CO)O3)cc1O2` ?
> 18

====

# test description: Selectivity index, ratio of CC50 for human HEL cells to EC50 for antiviral activity against thymidine kinase positive Varicella zoster virus
# Assay type: toxicity
# measurement conditions: read-out: Ratio CC50/EC50
attribute measured: selectivity ratio

Example cases with answers are listed next.
>  <smiles data>
CCCCCCCCCOc1ccc2c(c1)Nc1nc(=O)n([C@H]3C[C@H](O)[C@@H](CO)O3)cc1O2

>  <selectivity ratio>
> 500

$$$$
>  <smiles data>
CCCCCCCCOc1ccc2c(c1)N(C)c1nc(=O)n([C@H]3C[C@H](O)[C@@H](CO)O3)cc1O2

>  <selectivity ratio>
74

$$$$
>  <smiles data>
CCCCCCCCOc1ccc2c(c1)Nc1nc(=O)n([C@H]3C[C@H](O)[C@@H](CO)O3)cc1O2

>  <selectivity ratio>
> 238

$$$$

Let us examine a further case.
What selectivity ratio value was documented for this compound, `CCCCCCCCCCOc1ccc2c(c1)N(C)c1nc(=O)n([C@H]3C[C@H](O)[C@@H](CO)O3)cc1O2` ?
> 11

====

We begin with a simple list: items and their reported selectivity ratio.
# test description: Selectivity index, ratio of CC50 for African green monkey Vero cells to EC50 for Antiviral activity against Chikungunya virus infected in African green monkey Vero cells
# Assay type: toxicity
# measurement conditions: read-out: Ratio CC50/EC50

>  <smiles data>
CCCCCCCCOc1ccc2c(c1)N(C)c1nc(=O)n([C@H]3C[C@H](O)[C@@H](CO)O3)cc1O2

>  <selectivity ratio>
> 4

$$$$
>  <smiles data>
CCCCCCCCOc1ccc2c(c1)Nc1nc(=O)n([C@H]3C[C@H](O)[C@@H](CO)O3)cc1O2

>  <selectivity ratio>
> 40

$$$$
>  <smiles data>
CCCCCCCCCOc1ccc2c(c1)N(C)c1nc(=O)n([C@H]3C[C@H](O)[C@@H](CO)O3)cc1O2

>  <selectivity ratio>
> 15

$$$$
>  <smiles data>
CN1c2ccccc2Oc2cn(COCCO)c(=O)nc21

>  <selectivity ratio>
> 6

$$$$

What selectivity ratio value was documented for this molecule, `CCCCCCCCCCOc1ccc2c(c1)N(C)c1nc(=O)n([C@H]3C[C@H](O)[C@@H](CO)O3)cc1O2` ?
83

What selectivity ratio value was documented for this molecule, `CCCCCCCCCOc1ccc2c(c1)Nc1nc(=O)n([C@H]3C[C@H](O)[C@@H](CO)O3)cc1O2` ?
> 13

What selectivity ratio value was documented for this molecule, `O=c1nc2c(cn1COCCO)Oc1ccccc1N2` ?
> 3

What selectivity ratio value was documented for this molecule, `COc1ccc(C(OCCOCn2cc3c(nc2=O)N(C)c2ccccc2O3)(c2ccccc2)c2ccc(OC)cc2)cc1` ?
> 16

====

We begin with a simple list: items and their reported EC50.
# Test system: SARS-CoV-2
# test description: Antiviral activity against SARS COV-2 infected in monkey vero cells assessed as reduction in virus-induced cytopathic effect preincubated with virus for 1 hr followed by cell infection and measured after 5 days by microscopic analysis
# Type: functional, organism-based
# measurement conditions: Severe acute respiratory syndrome coronavirus 2, Vero

Example cases with answers are listed next.
>  <smiles data>
CCCCCCCCOc1ccc2c(c1)N(C)c1nc(=O)n([C@H]3C[C@H](O)[C@@H](CO)O3)cc1O2

>  <assay system>
SARS-CoV-2

>  <EC50>
> 100 µM

$$$$
>  <smiles data>
COc1ccc(C(OC[C@H]2O[C@@H](n3cc4c(nc3=O)Nc3c(OCCN)cccc3O4)[C@H](O)[C@@H]2O)(c2ccccc2)c2ccc(OC)cc2)cc1

>  <assay system>
SARS-CoV-2

>  <EC50>
> 100 µM

$$$$
>  <smiles data>
O=c1nc2c(cn1[C@@H]1O[C@H](CO)[C@@H](O)[C@H]1O)Oc1ccccc1N2

>  <assay system>
SARS-CoV-2

>  <EC50>
> 100 µM

$$$$

Let us examine a further case.
What EC50 value was documented for this molecule, `NCCOc1cccc2c1Nc1nc(=O)n([C@@H]3O[C@H](CO)[C@@H](O)[C@H]3O)cc1O2` ?
2.52 µM

====

# Test system: Vero
# test description: Cytotoxicity in African green monkey Vero cells assessed as reduction in cell viability measured after 5 days by resazurin dye based assay
# measurement conditions: chlorocebus sabaeus, vero, 120 h; time 5 day
We begin with a simple list: items and their reported CC50.

Example cases with answers are listed next.
>  <compound>
NCCOc1cccc2c1Nc1nc(=O)n([C@H]3C[C@H](O)[C@@H](CO)O3)cc1O2

>  <CC50>
1.81 µM

$$$$
>  <compound>
CO[C@@H]1[C@H](O)[C@@H](CO)O[C@H]1n1cc2c(nc1=O)Nc1ccccc1O2

>  <CC50>
> 100 µM

$$$$
>  <compound>
CCCCCCCCOc1ccc2c(c1)Nc1nc(=O)n([C@H]3C[C@H](O)[C@@H](CO)O3)cc1O2

>  <CC50>
> 100 µM

$$$$
>  <compound>
CCCCCCCCCCOc1ccc2c(c1)Nc1nc(=O)n([C@H]3C[C@H](O)[C@@H](CO)O3)cc1O2

>  <CC50>
> 100 µM

$$$$
>  <compound>
COc1ccc(C(OCCOCn2cc3c(nc2=O)Nc2ccccc2O3)(c2ccccc2)c2ccc(OC)cc2)cc1

>  <CC50>
> 100 µM

$$$$
>  <compound>
CCCCCCCCCCOc1ccc2c(c1)N(C)c1nc(=O)n([C@H]3C[C@H](O)[C@@H](CO)O3)cc1O2

>  <CC50>
59 µM

$$$$
>  <compound>
O=c1nc(NO)ccn1[C@@H]1O[C@H](CO)[C@@H](O)[C@H]1O [N-HYDROXYCYTIDINE]

>  <CC50>
> 100 µM

$$$$
>  <compound>
CCCCCCCCCOc1ccc2c(c1)Nc1nc(=O)n([C@H]3C[C@H](O)[C@@H](CO)O3)cc1O2

>  <CC50>
> 100 µM

$$$$

Let us examine a further case.
What CC50 value was documented for this compound, `CN1c2ccccc2Oc2cn(COCCO)c(=O)nc21` ?
> 100 µM

====

# test description: Cytotoxicity in African green monkey Vero cells assessed as reduction in cell viability measured after 5 days by resazurin dye based assay
# measurement conditions: chlorocebus sabaeus, Vero cells; time 5 day
attribute measured: CC50 at 120 h

What CC50 at 120 h value was documented for this compound, `O=c1nc2c(cn1[C@H]1C=C[C@@H](O)C1)Oc1ccccc1N2` ?
> 100 µM
